Data provenance: patent US20250197490A1

Biological target: T1, corticotropin-releasing hormone (CRH) peptide (human and mouse, UniProt P01143 145-185 (rat entry), not fully specified)
T1 peptide: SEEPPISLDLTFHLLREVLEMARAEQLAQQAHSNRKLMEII
Experiment: cell-based or functional assay
Please respond with True when measured unlabelled nM value (Table 5 matrix; likely hCRHR1-Luc IC50 as in Tables 6-8) is strictly beneath 4 nM, and with False in all other cases.

1) PR302048 (antibody, human IgG1, kappa, V domains shown) VH: EVQLVESGGGLVQPGGSLKLSCAASGFTFSNYWMNWVRQASGKGLEWVGEIRLKSNNYATHYAESVKGRFTISRDDSKNTAYLQMNSLKTEDTAVYYCTRGTLVYWGQGTLVTVSS VL: DIQLTQSPSSLSASVGDRVTITCRASQSVSTSTYNYMHWFQQKPGKAPKLLIKFASNLESGVPSRFSGSGSGTDFTLTISSLQPEDTATYYCQHSWEIPYTFGQGTKLEIKR = False
2) PR302050 (antibody, human IgG1, kappa, V domains shown) VH: EMQLVESGGGLVQPGGSLKLSCAASGFTFSNYWMNWVRQASGKGLEWVAEIRLKSNNYATHYAESVKGRFTISRDDSKSTVYLQMNSLKTEDTAVYYCTVGTLVYWGQGTLVTVSS VL: DIVLTQSPDSLAVSLGERATINCRASQSVSTSTYNYMHWFQQKPGQPPKLLIKFASNLESGVPDRFSGSGSGTDFTLTISSLQAEDTAVYYCQHSWEIPYTFGQGTKLEIKR = True
3) PR302043 (antibody, human IgG1, kappa, V domains shown) VH: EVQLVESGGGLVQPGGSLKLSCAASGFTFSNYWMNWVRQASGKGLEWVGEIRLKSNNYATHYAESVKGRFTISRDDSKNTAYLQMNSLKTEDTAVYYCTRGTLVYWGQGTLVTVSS VL: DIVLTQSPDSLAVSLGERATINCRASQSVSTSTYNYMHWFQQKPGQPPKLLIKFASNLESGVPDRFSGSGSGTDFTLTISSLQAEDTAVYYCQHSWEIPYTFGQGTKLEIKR = True
4) PR302045 (antibody, human IgG1, kappa, V domains shown) VH: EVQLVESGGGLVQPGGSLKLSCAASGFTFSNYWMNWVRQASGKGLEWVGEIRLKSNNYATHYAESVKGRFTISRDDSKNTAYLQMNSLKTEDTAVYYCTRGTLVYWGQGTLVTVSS VL: EIVLTQSPATLSLSPGERATLSCRASQSVSTSTYNYMHWFQQKPGQAPRLLIKFASNLESGIPARFSGSGSGTDFTLTISSLEPEDTAVYYCQHSWEIPYTFGQGTKLEIKR = False
5) PR302055 (antibody, human IgG1, kappa, V domains shown) VH: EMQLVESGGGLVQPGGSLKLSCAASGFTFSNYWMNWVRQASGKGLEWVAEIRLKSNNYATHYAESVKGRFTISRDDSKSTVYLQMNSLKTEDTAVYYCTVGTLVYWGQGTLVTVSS VL: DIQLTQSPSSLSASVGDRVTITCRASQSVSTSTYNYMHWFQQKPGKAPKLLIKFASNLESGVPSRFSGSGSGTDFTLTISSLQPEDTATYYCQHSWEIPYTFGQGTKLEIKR = True
